These data points were gathered from patent US20130150363A1.

Test system: HT29 colon carcinoma cells
Assay: Cell growth inhibition (CellTiter-Glo), HT29
Type: cell-based
Details: Homo sapiens, HT-29, 72 h, colon_HT-29, +HGF (2 ng/mL), 3 days
pIC50: −log10 of the molar value.
readout: pIC50

Please report the measured pIC50 for C#Cc1cccc(Nc2ncnc3cc(OCCOC)c(OCCOC)cc23)c1
< 5.00

###

System: NCI-H2342 lung carcinoma cells
Test: Cell growth inhibition (CellTiter-Glo), NCI-H2342
Format: cell-based
Details: Homo sapiens, NCI-H2342, 72 h, lung_H2342, +HGF (2 ng/mL), 3 days
Procedure: Esophageal carcinoma cell line OE33 was purchased from ECACC European Collection of Cell Cultures (UK). […] Cell growth inhibition was determined via CellTiter-Glo cell viability assays. […] ATP levels were determined by adding Cell Titer Glo0 (Promega), incubating for 20 minutes then the luminescent signal was read on the SpectraMax M5 plate with a 0.5 second integration time. Cell growth was calculated relative to vehicle (DMSO) treated control wells. […]
readout: pIC50
Numbers only, as −log10 of the molar value.

Please report the measured pIC50 for CS(=O)(=O)CCNCc1ccc(-c2ccc3ncnc(Nc4ccc(OCc5cccc(F)c5)c(Cl)c4)c3c2)o1
5.18
